Reference source for all entries: the supplement of paper PMC9170038

test system: MS2 coat protein; experiment: apparent KD of MS2 coat protein; designed switch direction (-1 OFF switch, 1 ON switch): 1; higher = weaker reporter binding; settings: Eterna round: R95; input ligand: FMN 200 uM
Attribute: apparent KD of MS2 coat protein
Param answer (str): number followed by unit.

Observe how each entry below is paired with its result.
>>> reading("GGUUUAGUCAGGCACAAUUGCGCCUGAAAACAUGAGGAUCACCCAUGUUUGGGACAAGCUUUGCUCCUCGUCUUGCA [Enzati] (puzzle: Sensor for hsa-mir-208a)")
"306 nM"
>>> reading("AACCUACAUGAGGAUCACCCAUGUGUCUAAGGCACAGGAUAUCGACAGGCAAGACGCCUGCGAGAAGGGUGACCUA [Erononer] (puzzle: Same State 1)")
"58.7 nM"
>>> reading("GACAGGCAAGCUUUUUUCUCGUAGUGUAGACAUGAGGAUCACCCAUGUGCUCGCCCUGGAUCUUUGGAUCGCAGAAA [Laaxeso] (puzzle: Sensor for hsa-mir-208a)")
"17.7 nM"
>>> reading("AGUCCAGCCAGAGCUGGACAAAAGCAUGUACAUGAGGAUCACCCAUGUUCAUGUACAAGCUUUUUGCUCGUCAAAAG [Mat - hsa-mir-208a - Mod of JL - 69] (puzzle: Sensor for hsa-mir-208a)")
"304 nM"
>>> reading("GACAGGCAAGCUUUUUUCUCGUAGUGUAAACAUGAGGAUCACCCAUGUGCUCGCCCUAGAUCUUUGGAUCGCAGAAA [Ceedes] (puzzle: Sensor for hsa-mir-208a)")
"39.5 nM"

Give the measured apparent KD of MS2 coat protein of GCAGUACUAGCAGAGGAUAUGUCGAUAACGACAUGAGGAUCACCCAUGUGUACGGAAGUACUCAGACAGAAGGCUGAGUACUGCU [Same State 2 - Hyphema v.2] (puzzle: Same State 2) .
15.2 nM

Need apparent KD of MS2 coat protein of UCUUGGUUUUUGCUCGUUUUUUGUGUUGAACAUGAGGAUCACCCAUGUAUUAUACGGUCCGGUUUAGUAGUGGUCCG [JMF 79] (puzzle: Sensor for hsa-mir-208a) , thanks.
28.2 nM

Recorded apparent KD of MS2 coat protein for GGUCCAGCCUGAGCUGGACAAAAGCAUGUACAUGAGGAUCACCCAUGUCAUGUACAAGCUUUUUGCUCGUCUUAAUA [Mat - hsa-mir-208a - 89] (puzzle: Sensor for hsa-mir-208a) , please?
583 nM

Sample UAGAGAGGAAGCGAGGAUAUCGUGUGAGGUACAUGAGGAUCACCCAUGUUUGAUGUUGAGAGAGGCGAGAAGGCGCAGGAGAUUA [JR_SS2_Sub084] (puzzle: Same State 2) — what was its apparent KD of MS2 coat protein?
34.1 nM

Given the sequence AACAAUCUAUCUGAGGAUAUCAUGAAAUUAACAUGAGGAUCACCCAUGUGCAGGAAAACUGCAUAUGAGAAGGCAGAUAGAUUGA [salish99_ss2_r3_033] (puzzle: Same State 2) , what is its reported apparent KD of MS2 coat protein?
120 nM

====

test system: MS2 coat protein; assay: apparent KD of MS2 coat protein; designed switch direction (-1 OFF switch, 1 ON switch): -1; higher = weaker reporter binding; settings: Eterna round: R95; input ligand: microRNA oligo, concentration not stated
assayReadout: apparent KD of MS2 coat protein (nM)
Report only the number, with the unit nM understood.

Illustrative cases are given below, each with its answer.
>>> reading("UAUUAGCAAGCACGAUCCCACAUGAGGAUCACCCAUGUGCUCGUCUUAUAAGGUACUGUGACGAAAGUCACGGUACC [Sensor 3, v1 - 94] (puzzle: Sensor v3, turn-off variant 1)")
847
>>> reading("AGUAACAGAGGAUAUACUAUUUUAUGUGUUUGUUGUUUUGAACAUGAGGAUCACCCAUGUAGAAGGCUGAAUAA [JMF 96] (puzzle: Exclusion 2)")
24.1

Any idea what apparent KD of MS2 coat protein was measured for AAGUAUAGAGGAUAUAGUGAGUACUACAUGAGGAUCACCCAUGUUCUUCGUUACGUAUUUCUAGAAGGCUGAUAAA [EX-5 Malc#23] (puzzle: Exclusion 5) ?
106
